All values here come from the pKa sets of Baltruschat and Czodrowski (2020).

# condition context: acidic group
Label yes (1) when pKa >= 8; otherwise no (0).

Prompt: Given the entry O=Cc1ncnc2nc[nH]c12 , answer whether its pKa meets or surpasses 8.
Response: yes (1)

Prompt: And for C[NH+]1C[C@@H](C(=O)O)C[C@@]2(O)c3cccc4[nH]cc(c34)C[C@H]12 ?
Response: no (0)

Prompt: Further, for C/C(O)=C/C(N)=O ?
Response: yes (1)

Prompt: Further, for C[n+]1ccc2cc(O)ccc2c1 ?
Response: no (0)

Prompt: Please answer likewise for Cc1ccc(O)c(C(C)C)c1
Response: yes (1)

Prompt: Then this compound: Cc1cnc2c(O)cccc2c1C
Response: yes (1)

Prompt: Same thing, different compound: C[NH+](C)CCCCNC(=O)/C=N/O
Response: yes (1)

----------
# condition context: acidic group
Assign Y to entries whose pKa meets or exceeds 8; assign N to the rest.

Prompt: Decide: pKa of [O-]c1nc(NO)cc[n+]1[C@H]1O[C@@H](CO)[C@H](O)[C@@H]1O >= 8?
Response: Y

Prompt: Please give the result for Cc1cc(O)ccc1[S+](C)C too.
Response: N

Prompt: Here is the next compound: NCCc1ccc(O)cc1
Response: Y

Prompt: Further, for Cc1ccc(C)c(NN=C(C#N)C#N)c1 ?
Response: N

Prompt: Please give the result for O=C(O)CSc1ccc(S)cc1 too.
Response: N

Prompt: Next: O=C(O)C1(O)CCCCCC1
Response: N

Prompt: // query: C[NH+](C)Cc1cc(Br)ccc1O
Response: N

Prompt: Follow-up entry: Oc1c(C(Nc2nc3ccccc3s2)c2ccccn2)ccc2cccnc12 (stereo not given)
Response: Y

Prompt: Now try O=C(O)/C=C/c1ccccc1O .
Response: N

Prompt: Can you handle CN(C)C(=S)NCC(=O)O next?
Response: N

Prompt: Next compound up: c1ccc(-c2cn[nH]c2)cc1
Response: Y

Prompt: Next entry: Cc1cccc([Se](=O)O)c1
Response: N

Prompt: Queued: C[N+]1(CCCCC(=O)O)CCCCC1
Response: N

Prompt: And the next one, Oc1cc(Cl)c(Cl)c(Cl)c1 ?
Response: N

Prompt: Query CNc1cccc[n+]1O next
Response: N

Prompt: Next: CSC(=S)NCC(=O)O
Response: N

Prompt: Same question for Clc1ccc2[nH]nnc2c1 please.
Response: N

Prompt: Here is the next compound: CCCC1(CCC)SC(=O)NC1=O
Response: N

Prompt: What would you report for CN1CC(=O)NC1=O ?
Response: Y

Prompt: Follow-up item: O=C([O-])[C@H]1O[C@@H]1C(=O)O
Response: N

Prompt: Continue with N#CC(C#N)=C(C#N)NC(C#N)=C(C#N)C#N
Response: N

Prompt: Repeat for the following compound: CC(=O)CC(=O)C(C)(C)C
Response: Y

Prompt: What about this compound? CN(C)/C=N/c1ccc(O)cc1
Response: Y

Prompt: Please answer likewise for NCCNC(=O)c1ccccc1
Response: Y

Prompt: Please give the result for Cc1ccccc1O too.
Response: Y

Prompt: Next entry: O=C(O)Cn1ncnn1
Response: N

Prompt: Similarly, [NH3+]C1(C(=O)O)CCCCC1 ?
Response: N

Prompt: What about O=C1NC(=S)NC12CCCCC2 ?
Response: Y

Prompt: Follow-up entry: Cc1cc(N)c(O)cc1C
Response: Y

Prompt: Follow-up item: C/C(=N\O)c1ccccc1
Response: Y

Prompt: Try the compound O=C1NC(=O)c2c1cccc2[N+](=O)[O-]
Response: Y

Prompt: Would you kindly repeat that for c1nnn[nH]1 ?
Response: N

Prompt: What do we get for N#CC(C#N)=NNc1cccc(O)c1 ?
Response: N

Prompt: Try this compound next: CCOC(=O)/C(=N\O)C(C)=O
Response: N

Prompt: Also check C[n+]1c2ccccc2nc2ccc(O)cc21
Response: N

Prompt: Moving on to the next compound: Nc1ccc(O)cc1O
Response: Y

Prompt: What do you have for O=C(O)C1(C(=O)O)CCCC1 ?
Response: N

Prompt: What do you get for S=CNc1ccccc1Cl ?
Response: Y

Prompt: // next record N#Cc1c(-c2nc3cc(Cl)ccc3o2)c(=O)oc2cc(O)ccc12
Response: N

Prompt: Same read-out for [NH3+]CCCCCCC(=O)O ?
Response: N

Prompt: // repeat for O=C(O)c1cccnn1 and report
Response: N

Prompt: Repeat with CC(=S)Nc1ccccc1
Response: Y

Prompt: Similarly, O=C(O)CNC(=O)c1cccc(O)c1O ?
Response: N

Prompt: Now the same for O=C1C[C@H](C(=O)O)[C@@H](C(=O)O)O1
Response: N

Prompt: Follow-up entry: [NH3+]C/C=C/C(=O)O
Response: N

Prompt: Another compound to look at: COc1cc2ccccc2cc1C(=O)O
Response: N

Prompt: Let us now turn to O=C(O)/C=C\c1cccc(Cl)c1
Response: N

Prompt: Follow-up entry: c1ccc(CCNc2ncnc3nc[nH]c23)cc1
Response: Y

Prompt: Okay, and CC1=C(C)/C(=C(\C)C(=O)O)CC1=O ?
Response: N

Prompt: How about this compound: CNC[C@H](O)c1cccc(O)c1
Response: Y

Prompt: Then this compound: O=C(O)CCCC(=O)NOCc1ccccc1
Response: N

Prompt: Same lookup for N#CC1C=CN(Cc2cccc(F)c2)C=C1C(N)=O (stereo not given) , please.
Response: N

Prompt: And for Cc1cccc(O)c1O ?
Response: Y

Prompt: And O/C(=C/c1cccnc1)c1ccccc1 ?
Response: Y

Prompt: Query Cc1cc(CO)c(O)c(CO)c1 next
Response: Y

Prompt: Try this compound too: Oc1ccc2c(c1)ncc1ccccc12
Response: Y

Prompt: How about this compound: O=S(=O)(Nc1cccc(C(F)(F)F)c1)C(F)(F)F
Response: N

Prompt: Would you kindly repeat that for O/N=C/c1ccc2c(c1)OCO2 ?
Response: Y

Prompt: Could you do the same for [NH3+]Cc1ccc(C(=O)O)cc1 , please?
Response: N

Prompt: Now the same for O=C1COC(=O)C1I (stereo not given)
Response: N

Prompt: Next up: COP(=O)(O)NS(C)(=O)=O
Response: N

Prompt: Again, but for COc1cccc(C(=O)O)c1C
Response: N

Prompt: Continue with CCOO
Response: Y

Prompt: Try Oc1ccc(I)cc1 next.
Response: Y

----------
# condition context: acidic group
Where a SMILES comes first, the peptide text is derived from it.
Kind request: treat 6 as inclusive, so pKa at 6 or higher is 1, anything lower is -1.

Prompt: In plain terms: is recorded pKa at least 6 for C[S+](C)c1ccc(O)cc1 ?
Response: 1

Prompt: Another: O=C(O)/C(Cl)=N/O
Response: -1

Prompt: Quick one: CC(C)C(=O)CC=O
Response: 1

Prompt: Entry to check: Cc1ccc(C(=O)O)c(Br)c1
Response: -1

Prompt: And what about the molecule [O-]c1ccccc1-c1ccccc1O ?
Response: 1

Prompt: What do we get for Cn1cnc(C(=O)O)c1C(=O)O ?
Response: -1

Prompt: For O=C([O-])CNC(=O)c1ccccc1O then?
Response: 1

Prompt: // next record O=C(O)CC(O)c1ccccc1 (stereo unspecified)
Response: -1

Prompt: Also need C/C(=N/c1ccccc1O)c1ccccc1O , thanks.
Response: 1

Prompt: Now try COc1cc([N+](=O)[O-])ccc1O .
Response: 1

Prompt: O=C1C[C@@H](C(=O)O)[C@@H](C(=O)[O-])O1 ?
Response: -1

Prompt: O=C(O)C#COc1ccccc1 ?
Response: -1

Prompt: Can you check COc1cnc(N)s1 next?
Response: -1

Prompt: Follow-up item: CC(=O)NS(=O)(=O)c1ccsc1C(=O)O
Response: -1

Prompt: Would you kindly repeat that for O=C(O)c1cccc(O)c1 ?
Response: -1

Prompt: Please answer likewise for [NH3+]C(Cc1n[nH]c2ccccc12)C(=O)O (stereo unspecified)
Response: -1

Prompt: What about [NH3+]CCc1ccccc1O ?
Response: 1

Prompt: One more molecule: C[NH+](C)Cc1cccc(NC(=O)/C=N/O)c1
Response: 1

Prompt: Same question for On1nnc2ccc(Cl)cc21 please.
Response: -1

Prompt: What about this molecule? CC(C)=CCC(=O)O
Response: -1

Prompt: Now the molecule O=C(O)[C@@H]1CSC[NH2+]1
Response: -1

Prompt: Another: Cc1cc(C2(c3ccc(O)c(C)c3)OS(=O)(=O)c3c(Br)c(Br)c(Br)c(Br)c32)ccc1O
Response: 1

Prompt: Next record, please: O=C(O)c1ccccc1O[C@H]1O[C@@H](CO)[C@H](O)[C@@H](O)[C@@H]1O
Response: -1

Prompt: Consider next the molecule Brc1cn[nH]c1 in the same way.
Response: 1

Prompt: Do the same for CC(C)/C=C/C(=O)O please
Response: -1

Prompt: Consider next the molecule O=C(O)C1CCCc2ccccc2O1 (stereo unspecified) in the same way.
Response: -1

Prompt: Ok, now Cc1cc(O)nn1-c1ccccc1C(=O)[O-]
Response: 1

Prompt: # iterate: CC(=O)CCC(=O)O
Response: -1

Prompt: Try the molecule O=C(O)[C@@H]1CC[C@@H](C(=O)O)S1
Response: -1

Prompt: Here is the next molecule: COc1c(O)ccc2c1C[N+]1(C)CCc3cc4c(cc3[C@@H]1C2)OCO4 (stereo partly specified)
Response: 1

Prompt: What do you get for O=C(O)c1ccc(Br)c([N+](=O)[O-])c1 ?
Response: -1

Prompt: Now try NC(=S)Nc1ccc([N+](=O)[O-])cc1 .
Response: 1

Prompt: And the next one, CC(C)Oc1ccc(C(=O)O)cc1 ?
Response: -1

Prompt: # repeat for O=[N+]([O-])c1cccc(O)c1
Response: 1

Prompt: Let us now turn to Nc1cc([O-])ccc1O
Response: 1

Prompt: One more molecule: C[n+]1cc(O)cc2ccccc21
Response: -1

Prompt: Also need CC(C)(S)C(C(=O)[O-])n1ccnc1Cc1ccccc1 (stereo unspecified) , thanks.
Response: 1

Prompt: Consider next the molecule O=C(O)C1C2CCC1CC2 (stereo unspecified) in the same way.
Response: -1

Prompt: Follow-up entry: CSC(=S)N(C)CC(=O)O
Response: -1

Prompt: Try the molecule CCCC[P+](CCCC)(CCCC)C1c2ccccc2-c2ccccc21
Response: 1

Prompt: Repeat for the following molecule: Cc1cc[nH]c1C(=O)O
Response: -1

Prompt: Please give the result for Oc1cc(O)c2ccccc2[nH+]1 too.
Response: -1

Prompt: Can you check C/C(=N\O)C(=O)[N-]O next?
Response: 1

Prompt: Next molecule up: CC(C)CC(N)C(=O)NC(CC(N)=O)C(=O)O (stereo not drawn) (H-Leu-Asn-OH; configuration not given here)
Response: 1

Prompt: How about Oc1[nH+]ncc2ccccc12 ?
Response: -1

Prompt: What about COc1cc(OC)nc(NS(=O)(=O)c2ccc(N)cc2)n1 ?
Response: 1

Prompt: Lookup CCC(=O)CC(C)=O
Response: 1

Prompt: Follow-up item: O=C(O)c1ccnnc1
Response: -1

Prompt: And then N#CC(C(=O)O)c1ccccc1 (stereo unspecified) , what is it?
Response: -1

Prompt: Another molecule: Nc1ccc(S(=O)(=O)Nc2ncc[nH]2)cc1
Response: 1

Prompt: Now the same for CC(C)(C#N)CC(=O)O
Response: -1

Prompt: Next entry: C=C(C)[C@H]1C[NH2+][C@H](C(=O)O)[C@H]1CC(=O)OC
Response: -1

Prompt: Again, but for N#CS
Response: -1

Prompt: # iterate: O=C([O-])c1ccc(O)cc1
Response: 1

Prompt: Same for CC(=O)CC(=S)Nc1cccc(C)c1
Response: 1

Prompt: Same lookup for O=C([O-])CCS , please.
Response: 1

Prompt: Try this molecule too: Cc1nn(C)c(O)c1-c1ccccc1
Response: 1

Prompt: Can you handle CCCCCc1c(-c2ccccc2)n[nH]c1O next?
Response: 1
